- TEST_SYSTEM: Lck (Homo sapiens)
- Construct: Kinases are expressed as either kinase domains or full length constructs; made in house
- Sequence (P06239 whole entry, species assumed, the tested form may be a part): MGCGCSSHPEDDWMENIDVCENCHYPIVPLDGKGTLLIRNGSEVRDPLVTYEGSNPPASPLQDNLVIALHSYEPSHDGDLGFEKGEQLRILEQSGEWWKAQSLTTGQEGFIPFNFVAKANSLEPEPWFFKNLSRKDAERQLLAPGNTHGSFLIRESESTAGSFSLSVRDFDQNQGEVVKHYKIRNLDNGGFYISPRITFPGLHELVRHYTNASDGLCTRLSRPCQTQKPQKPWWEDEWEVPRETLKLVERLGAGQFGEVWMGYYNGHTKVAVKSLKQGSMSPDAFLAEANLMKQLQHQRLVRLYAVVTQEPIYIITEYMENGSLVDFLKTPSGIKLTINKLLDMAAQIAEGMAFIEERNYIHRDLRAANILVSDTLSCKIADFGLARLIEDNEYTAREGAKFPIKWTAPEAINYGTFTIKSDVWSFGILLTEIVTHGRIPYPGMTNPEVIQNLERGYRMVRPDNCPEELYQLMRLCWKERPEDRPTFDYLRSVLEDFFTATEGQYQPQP
- PROTOCOL_DETAILS: Kinase inhibition assay (33P transfer), Lck
- Assay type: biochemical
- APPLIED_CONDITIONS: Table 3; read-out: Lck-1
- Source text: The inhibitor compounds described herein are screened in the following manner. […] Kinases are expressed as either kinase domains or full length constructs fused to glutathione S-transferase (GST) or polyHistidine tagged fusion proteins in either E. colior Baculovirus-High Five expression systems. […]
pIC50: −log10 of the molar value.
ASSAY_ENDPOINT: pIC50

# example entries with known answers
- COMPOUND: "COc1ccccc1Nc1ncnc(-n2cccc2)n1 [Compound 279]"
  TEST_SYSTEM: "Lck (Homo sapiens)"
  pIC50: "< 4.77"
- COMPOUND: "COc1cc(Nc2ncnc(Nc3nc4ccc(F)cc4s3)n2)cc(OC)c1OC [Compound 317]"
  TEST_SYSTEM: "Lck (Homo sapiens)"
  pIC50: "5.25 to 6.03"
- COMPOUND: "COc1cc(Nc2ncnc(Nc3nc(C)cs3)n2)cc(OC)c1OC [Compound 468]"
  TEST_SYSTEM: "Lck (Homo sapiens)"
  pIC50: "< 4.92"
- COMPOUND: "Clc1ccccc1Nc1ncnc(-n2cccc2)n1 [Compound 280]"
  TEST_SYSTEM: "Lck (Homo sapiens)"
  pIC50: "< 4.78"
- COMPOUND: "COc1cc(Nc2ncnc(Nc3ccccc3F)n2)cc(OC)c1OC [Compound 65]"
  TEST_SYSTEM: "Lck (Homo sapiens)"
  pIC50: "4.92 to 5.03"
- COMPOUND: "COc1cc(Nc2ncnc(N3CCCC3)n2)cc(OC)c1OC [Compound 181]"
  TEST_SYSTEM: "Lck (Homo sapiens)"
  pIC50: "< 4.87"
- COMPOUND: "FC(F)C(F)(F)Oc1cccc(Nc2ncnc(-c3ccnc(N4CCCCC4)c3)n2)c1 [Compound 346]"
  TEST_SYSTEM: "Lck (Homo sapiens)"
  pIC50: "< 5.00"
- COMPOUND: "COc1cc(Nc2ncnc(-c3ccsc3)n2)cc(OC)c1OC [Compound 226]"
  TEST_SYSTEM: "Lck (Homo sapiens)"
  pIC50: "4.88 to 4.99"

Please examine the following record next.
### Prompt What value of pIC50 has been recorded for this entry: COC(=O)c1cccc(Nc2ncnc(Nc3cc(-c4ccco4)n[nH]3)n2)c1 [Compound 344]
### Response 5.20 to 5.97
